Hello, the source for this data is patent US20260317296A1, in case you need it.

# system.under.test: aggregated 4R-tau in PSP brain (Homo sapiens, UniProt P10636)
# Construct: aggregated 4R-tau in human brain tissue samples from AD, PSP, and CBD patients
# method.notes: Binding affinity (Kd) assay, PSP brain homogenate
# condition.summary: PSP brain; Table 1
reported.endpoint: pKd
Here pKd is given on a logarithmic scale as minus log10 of the concentration in mol/L.

OC1CCN(c2ncc(-c3cc4ccc(F)cc4[nH]3)cn2)CC1 [[^3H]1] = 8.29

Shift focus to the following entry.
In: Query: pKd; subject: Fc1ccc2cc(-c3cnc(N4CCOCC4)nc3)[nH]c2c1 [[^3H]2]
Out: 8.80

----------
# system.under.test: aggregated 4R-tau in PSP tissue (Homo sapiens, UniProt P10636)
# Construct: autopsy-confirmed postmortem AD, PSP, and CBD human brain tissues; tissue UCSF Neurodegenerative Disease Brain Bank; host or cells: post-mortem human PSP brain homogenate
# method.notes: In vitro competition (Ki) assay, PSP brain tissue homogenate
# Format: binding
# condition.summary: vs [^3H]2, n = 1, Ki=IC50/2, read-out: Inhibition Constant (Ki) versus [^3H]2
Each item that follows carries a reported pKi.
Here pKi is given on a logarithmic scale as minus log10 of the concentration in mol/L.

Fc1ccc2cc(-c3cnc(N4CCOCC4)cc3F)[nH]c2c1 [Compound 82] = 7.92

Shift focus to the following entry.
In: Fill in the recorded pKi for this compound, with aggregated 4R-tau in PSP tissue (Homo sapiens, UniProt P10636) as test system: Fc1ccc2cc(-c3ncc(N4CCOCC4)cc3F)[nH]c2c1 [Compound 98]
Out: 7.70

----------
# system.under.test: aggregated 4R-tau in CBD brain (Homo sapiens, UniProt P10636)
# Construct: aggregated 4R-tau in human brain tissue samples from AD, PSP, and CBD patients
# method.notes: Binding affinity (Kd) assay, CBD brain homogenate
# condition.summary: CBD brain; Table 1
Each item that follows carries a reported Kd.
The reply should be a number in nM, with the unit left off.

Fc1ccc2cc(-c3cnc(N4CCOCC4)nc3)[nH]c2c1 [[^3H]2] = 1.7

Shift focus to the following entry.
In: Fill in the recorded Kd for this compound, with aggregated 4R-tau in CBD brain (Homo sapiens, UniProt P10636) as test system: OC1CCN(c2ncc(-c3cc4ccc(F)cc4[nH]3)cn2)CC1 [[^3H]1]
Out: 4.1

----------
# system.under.test: aggregated 4R-tau in AD brain (Homo sapiens)
# Construct: aggregated 4R-tau in human brain tissue samples from AD, PSP, and CBD patients
# Sequence (P10636 1-441 isoform P10636-8): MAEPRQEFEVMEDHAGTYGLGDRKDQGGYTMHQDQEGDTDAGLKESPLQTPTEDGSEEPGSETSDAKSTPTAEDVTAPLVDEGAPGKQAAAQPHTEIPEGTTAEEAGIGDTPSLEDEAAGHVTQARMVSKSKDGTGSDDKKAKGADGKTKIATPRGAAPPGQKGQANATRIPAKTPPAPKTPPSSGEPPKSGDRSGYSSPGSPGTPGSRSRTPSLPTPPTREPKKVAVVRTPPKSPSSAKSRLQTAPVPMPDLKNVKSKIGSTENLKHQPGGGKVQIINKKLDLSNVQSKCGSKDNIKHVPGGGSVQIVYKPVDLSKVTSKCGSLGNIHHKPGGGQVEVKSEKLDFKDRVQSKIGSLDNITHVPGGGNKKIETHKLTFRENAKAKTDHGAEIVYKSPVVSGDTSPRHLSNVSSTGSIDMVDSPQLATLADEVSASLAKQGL
# Sequence (P10636 1-410 isoform P10636-5): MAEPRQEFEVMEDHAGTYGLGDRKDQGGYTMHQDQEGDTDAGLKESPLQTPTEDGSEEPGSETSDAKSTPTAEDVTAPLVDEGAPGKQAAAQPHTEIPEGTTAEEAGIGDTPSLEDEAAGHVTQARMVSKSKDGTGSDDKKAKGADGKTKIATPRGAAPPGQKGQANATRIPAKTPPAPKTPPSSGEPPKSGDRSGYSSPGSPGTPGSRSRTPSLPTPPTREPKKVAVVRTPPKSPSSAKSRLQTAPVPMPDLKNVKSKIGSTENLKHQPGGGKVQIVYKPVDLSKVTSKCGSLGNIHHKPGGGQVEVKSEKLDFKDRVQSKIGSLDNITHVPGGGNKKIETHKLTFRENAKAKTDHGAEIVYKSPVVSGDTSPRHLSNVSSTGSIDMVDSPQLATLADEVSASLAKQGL
# method.notes: Binding affinity (Kd) assay, AD brain homogenate
# condition.summary: AD brain; Table 1
reported.endpoint: Kd (nM)
The reply should be a number in nM, with the unit left off.

OC1CCN(c2ncc(-c3cc4ccc(F)cc4[nH]3)cn2)CC1 [[^3H]1] = 4

Shift focus to the following entry.
In: Query: Kd; subject: Fc1ccc2cc(-c3cnc(N4CCOCC4)nc3)[nH]c2c1 [[^3H]2]
Out: 1.2

----------
# system.under.test: aggregated 4R-tau in PSP tissue (Homo sapiens)
# Construct: autopsy-confirmed postmortem AD, PSP, and CBD human brain tissues; tissue UCSF Neurodegenerative Disease Brain Bank; host or cells: post-mortem human PSP brain homogenate
# method.notes: In vitro competition (Ki) assay, PSP brain tissue homogenate
# Assay type: binding
# condition.summary: vs [^3H]1, n = 1, Ki=IC50/2, read-out: Inhibition Constant (Ki) versus [^3H]1
reported.endpoint: Ki (nM)
The reply should be a number in nM, with the unit left off.

In: Query: Ki; subject: "OC1CCN(c2ncc(-c3cc4cc(F)ccc4o3)cn2)CC1"
Out: 91

In: Query: Ki; subject: "Cn1c(-c2cnc(N3CCOCC3)nc2)cc2ccc(F)cc21"
Out: 32

In: Query: Ki; subject: "OC1CCN(c2ncc(-c3cc4ccccc4[nH]3)cn2)CC1"
Out: 24

In: Query: Ki; subject: "OC1CCN(c2ncc(-c3cc4cc(F)ccc4[nH]3)cn2)CC1"
Out: 20

In: Query: Ki; subject: "Fc1ccc2cc(-c3cnc(N4CCC(F)(F)CC4)nc3)[nH]c2c1"
Out: 23
